# Procedure Details: in vitro
# Condition Summary: human, MCF-10A cells (nonmalignant breast)
Label Yes when viability at 48 h, 6.25 ug is strictly below 70%; at or above that, label No.

molecule=CC(=O)Oc1ccc2c(COC(=O)c3ccccc3)cc(=O)oc2c1 group=No
molecule=CC(=O)Oc1ccc2c(COC(=O)c3ccc(Cl)cc3)cc(=O)oc2c1 group=Yes
molecule="COc1cccc2c1C(=O)c1c(O)c3c(c(O)c1C2=O)C[C@@](O)(C(=O)CO)C[C@@H]3O[C@H]1C[C@H](N)[C@H](O)[C@H](C)O1 [Doxorubicin, reference compound]" group=Yes
molecule=O=C(OCc1cc(=O)oc2cc(O)ccc12)c1ccccc1 group=Yes

Here is the next item to consider.
API: query returns whether the molecule falls strictly under 70% in viability at 48 h, 6.25 ug. Query: O=C(COc1ccc2c(CCl)cc(=O)oc2c1)c1ccc(Cl)cc1 Yes

* * *

# Test system: MDA-MB-231
# Procedure Details: MTT cytotoxicity assay, MDA-MB-231
# Condition Summary: Homo sapiens, MDA-MB-231, read-out: cytotoxicity_IC50 MDA
The class of a record is decided solely by its measured IC50; consult low group = under 4 µg/mL, middle group = from 4 µg/mL up to 20 µg/mL, high group = 20 µg/mL and over

// return the class label for O=C(COc1ccc2c(CCl)cc(=O)oc2c1)c1ccccc1 low group

// return the class label for O=c1cc(CCl)c2ccc(O)cc2o1 [Compound 1, 4-chloromethyl-7-hydroxycoumarin] high group

// return the class label for O=C(COc1ccc2c(COC(=O)c3ccccc3)cc(=O)oc2c1)c1ccc(Cl)cc1 middle group

// return the class label for O=C(COc1ccc2c(COC(=O)c3ccc(Cl)cc3)cc(=O)oc2c1)c1ccc(Cl)cc1 low group

// return the class label for CC(=O)Oc1ccc2c(COC(=O)c3ccccc3)cc(=O)oc2c1 middle group

// return the class label for O=C(COc1ccc2c(COC(=O)c3ccccc3)cc(=O)oc2c1)c1ccccc1 high group

// return the class label for COc1ccccc1C(=O)OCc1cc(=O)oc2cc(OC(C)=O)ccc12 high group

// return the class label for O=C(OCc1cc(=O)oc2cc(O)ccc12)c1ccc(Cl)cc1 high group

// return the class label for COc1ccccc1C(=O)OCc1cc(=O)oc2cc(OCC(=O)c3ccc(Cl)cc3)ccc12 low group

// return the class label for COc1ccccc1C(=O)OCc1cc(=O)oc2cc(OCC(=O)c3ccccc3)ccc12 high group

// return the class label for CC(=O)Oc1ccc2c(COC(=O)c3ccc(Cl)cc3)cc(=O)oc2c1 low group

// return the class label for O=C(COc1ccc2c(COC(=O)c3ccc(Cl)cc3)cc(=O)oc2c1)c1ccccc1 middle group

// return the class label for O=C(OCc1cc(=O)oc2cc(O)ccc12)c1ccccc1 middle group

// return the class label for COc1ccccc1C(=O)OCc1cc(=O)oc2cc(O)ccc12 low group

* * *

# Tested Target: EGFR (Homo sapiens, UniProt P00533)
# Sequence (P00533 25-1210): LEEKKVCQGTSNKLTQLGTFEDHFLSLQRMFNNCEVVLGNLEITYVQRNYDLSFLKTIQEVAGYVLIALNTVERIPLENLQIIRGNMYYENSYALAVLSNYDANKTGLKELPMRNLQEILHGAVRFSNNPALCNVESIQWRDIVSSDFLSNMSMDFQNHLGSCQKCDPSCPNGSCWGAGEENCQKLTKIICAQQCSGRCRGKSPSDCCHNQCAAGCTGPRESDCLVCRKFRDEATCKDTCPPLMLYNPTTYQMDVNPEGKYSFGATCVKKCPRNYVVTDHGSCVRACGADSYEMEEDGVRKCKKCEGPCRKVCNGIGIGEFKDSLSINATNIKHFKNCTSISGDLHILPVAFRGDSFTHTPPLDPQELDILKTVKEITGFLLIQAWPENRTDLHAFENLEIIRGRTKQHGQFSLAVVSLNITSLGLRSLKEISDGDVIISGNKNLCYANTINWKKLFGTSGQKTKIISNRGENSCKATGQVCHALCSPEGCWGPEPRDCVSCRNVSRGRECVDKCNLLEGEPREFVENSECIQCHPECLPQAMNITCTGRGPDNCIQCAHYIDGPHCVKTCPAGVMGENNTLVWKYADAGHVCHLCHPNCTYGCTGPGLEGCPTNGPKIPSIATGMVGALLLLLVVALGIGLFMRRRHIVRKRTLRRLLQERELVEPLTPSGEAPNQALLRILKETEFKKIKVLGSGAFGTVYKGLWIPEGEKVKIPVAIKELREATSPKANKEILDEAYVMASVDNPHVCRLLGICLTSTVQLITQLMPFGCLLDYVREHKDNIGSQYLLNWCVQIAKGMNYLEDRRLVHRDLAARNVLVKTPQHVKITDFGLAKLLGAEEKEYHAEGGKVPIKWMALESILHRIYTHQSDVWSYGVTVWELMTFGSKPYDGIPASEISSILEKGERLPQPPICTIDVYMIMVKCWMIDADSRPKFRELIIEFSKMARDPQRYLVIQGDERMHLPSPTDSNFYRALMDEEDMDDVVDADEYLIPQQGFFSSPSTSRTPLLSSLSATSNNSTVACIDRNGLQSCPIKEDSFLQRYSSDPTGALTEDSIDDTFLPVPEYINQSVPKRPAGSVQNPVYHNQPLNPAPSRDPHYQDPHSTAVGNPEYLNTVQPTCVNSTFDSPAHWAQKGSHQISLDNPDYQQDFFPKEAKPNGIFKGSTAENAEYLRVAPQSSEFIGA
# Procedure Details: In vitro EGFR enzyme inhibition assay (ELISA)
# Condition Summary: read-out: EGFR %inh
Parameter: inhibition at 0.001 µg/mL (%)
Respond numerically; units are % and should not be typed.

Recorded inhibition at 0.001 µg/mL, per entry:
smi=CC(=O)Oc1ccc2c(COC(=O)c3ccc(Cl)cc3)cc(=O)oc2c1 unit_annotation=% recorded_value=44
smi=COc1ccccc1C(=O)OCc1cc(=O)oc2cc(OCC(=O)c3ccccc3)ccc12 unit_annotation=% recorded_value=54
smi=O=C(COc1ccc2c(CCl)cc(=O)oc2c1)c1ccccc1 unit_annotation=% recorded_value=70

Attention now turns to another entry.
API: value(readout=inhibition at 0.001 µg/mL, system=EGFR (Homo sapiens, UniProt P00533)) for record COc1ccccc1C(=O)OCc1cc(=O)oc2cc(OCC(=O)c3ccc(Cl)cc3)ccc12 73
